experiment: soluble on expression in E. coli; label from the status in PepcDB or PDB records
Property name: soluble on expression in E. coli

MSKDFIINEQIRAREVRLIDQNGDQLGIKSKQEALEIAARRNLDLVLVAPNAKPPVCRIMDYGKFRFEQQKKEKEARK; soluble
MKVTSLDGRQLRKMLRKEAAARCVVLDCRPYLAFAASNVRGSLNVNLNSVVLRRARGGAVSARYVLPDEAARARLLQEGGGGVAAVVVLDQGSRHWQKLREESAARVVLTSLLACLPAGPRVYFLKGGYETFYSEYPECCVDVKPISQEKIESERALISQCGKPVVNVSYRPAYDQGGPVEI; not soluble
VDYTLRRRSLLAEVYSGRTGVSEVCDANPYLLRAAKFHGKPSRVICPICRKEQLTLVSWVFGEHLGAVSGSARTAEELILLATRFSEFAVHVVEVCRTCSWNHLVKSYVLGAARPARPPRGSGGTRTARNGARTASE; not soluble
MGSSHHHHHHSSGLVPRGSHMASGMAPGGYVAPKAVWLPAVKAKGLEISGTFTHRQGHIYMEMNFTNKALQHMTDFAIQFNKNSFGVIPSTPLAIHTPLMPNQSIDVSLPLNTLGPVMKMEPLNNLQVAVKNNIDVFYFSCLIPLNVLFVEDGKMERQVFLATWKDIPNENELQFQIKECHLNADTVSSKLQNNNVYTIAKRNVEGQDMLYQSLKLTNGIWILAELRIQPGNPNYTLSLKCRAPEVSQYIYQVYDSILKN; soluble
